All figures here come from ChEMBL document CHEMBL4118122.

Experiment: Displacement of [3H]batrachotoxinin from rat brain voltage gated sodium ion channel site 2 after 60 mins by scintillation counting analysis
parameter: IC50 (µM)

INSERT INTO measurements (smiles_structure, parameter, readout_value) VALUES
  ('CC(C)(C)NS(=O)(=O)c1ccc(-c2sc(C(=O)N[C@H]3C[C@H](C(=O)O)C3)nc2CC2CCCCC2)c2ccccc12', 'IC50', 6.42);

----------
Test: Terminal half life in Sprague-Dawley rat at 5 mg/kg, po
Format: ADME, organism-based
Details: in vivo, read-out: beta t1/2 (converted)
# half-life listing for each entry below
parameter: half-life (h)

INSERT INTO assay_data (smiles_structure, units, readout_value) VALUES
  ('C[C@H](NS(=O)(=O)c1ccc(-c2sc(C(=O)NCC(C)(C)O)nc2CC2CC2)c2ccccc12)C(F)(F)F', 'h', 6.9),
  ('C[C@H](NS(=O)(=O)c1ccc(-c2sc(C(=O)NCC(C)(C)O)nc2CC2CCC2)c(C(F)F)c1)C(F)(F)F', 'h', 3.2),
  ('CC(C)(C)NS(=O)(=O)c1ccc(-c2sc(C(=O)N[C@H]3C[C@H](C(=O)O)C3)nc2CC2CCCCC2)c(Cl)c1', 'h', 2.1),
  ('CC(C)(C)NS(=O)(=O)c1ccc(-c2sc(C(=O)N[C@H]3C[C@H](C(=O)O)C3)nc2CC2CCCCC2)c2ccccc12', 'h', 2.1),
  ('C[C@H](NS(=O)(=O)c1ccc(-c2sc(C(=O)NC3CCS(=O)(=O)CC3)nc2CC2CC2)c2ccccc12)C(F)(F)F', 'h', 2.6);
